// provenance: patent US20090202526A1

- SYSTEM: T1, Human trkC-Fc fusion protein (human, UniProt Q16288 32-429)
- T1 construct: Immobilised on CM5 chip for BIAcore; also called htrkC; not shown: Fc part not described
- EXPERIMENTAL_DETAILS: BIAcore SPR, Fab over immobilised human trkC-Fc
MEASURED_ENDPOINT: koff (s⁻¹)
Numeric only. Scale: s⁻¹

[[record]]
binder = "Fab clone 129(T8)(H8xE10)(10B)(C7) (Fab, V domains shown) VH: QVQLVQSGAEVKKPGASVKVSCKASGYTFTSYRIHWVRQAPGQGLEWMGEIYPSNTRTNYNEKFKSRVTMTRDTSTSTVYMELSSLRSEDTAVYYCARKYYYGNTRRSWYFDVWGQGTTVTVS VL: DIQMTQSPSSLSASVGDRVTITCRASESIDNYGISFLAWYQQKPGKAPKLLIYAASNRGSGVPSRFSGSGSGTDFTFTISSLQPEDIATYYCQQSKTVPRTFGQGTKLEIKR"
result_value = 0.00047

[[record]]
binder = "Fab clone 129(T26) (Fab, V domains shown) VH: QVQLVQSGAEVKKPGASVKVSCKASGYTFTSYWMHWVRQAPGQGLEWMGEIYPSNGRTNYNEKFKSRVTMTLDKSTSTVYMQLSSLRSEDTAVYYCARKYYYGNSRRSWYFDVWGQGTTVTVS VL: DIQMTQSPSSLSASVGDRVTITCRASESVDNYGISFMNWYQQKPGKPPKLLIYAASNQGSGVPSRFSGSGSGTDFTFTISSLQPEDIATYYCQQSKAVPRTFGQGTKLEIKR"
result_value = 0.0012


Consider the binder shown here: Fab clone 129(T8)(H8) (Fab, V domains shown) VH: QVQLVQSGAEVKKPGASVKVSCKASGYTFTSYRIHWVRQAPGQGLEWMGEIYPSNSRTNYNEKFKSRATMTGDKSTSTVYMELSSLRSEDTAVYYCARKYYYGNSRRSWYFDVWGQGTTVTVS VL: DIQMTQSPSSLSASVGDRVTITCRASESVDNYGISFMTWYQQKPGKAPKLLIYAASNLGSGVPSRFSGSGSGTDFTFTISSLQPEDIATYYCQQSKTVPRTFGQGTKLEIKR What is its recorded koff?
0.0006
